# Test system: RS4-11 cells
# measurement-protocol: Cell viability assay RS4-11 (CellTiter-Glo)
# Format: cell-based
# conditions: Homo sapiens, 72 h; RS4-11 cells, 3 days, CellTiter-Glo; read-out: RS4-11 (CC50 code)
// values below are reported CC50
quantity: CC50

* CC(C)C(=O)N1Cc2ccc(Cl)cc2C[C@H]1CN1CCN(c2ccc(C(=O)NS(=O)(=O)c3ccc(NCC4CCOCC4)c([N+](=O)[O-])c3)c(Oc3cnc4[nH]ccc4c3)c2)CC1 | > 200 nM
* O=C(NS(=O)(=O)c1ccc(NCC2CCOCC2)c([N+](=O)[O-])c1)c1ccc(N2CCN(C(c3ccccc3)c3ccccc3)CC2)cc1Oc1cnc2[nH]ccc2c1 | > 200 nM
* COCCNc1ccc(S(=O)(=O)NC(=O)c2ccc(N3CCC(CN4CCCCC4c4ccc(Cl)cc4)CC3)cc2Oc2cnc3[nH]ccc3c2)cc1[N+](=O)[O-] (stereo not drawn) | 100 to 200 nM

----------
# measurement-protocol: Cell viability assay HEK293 (CellTiter-Glo)
# Assay type: cell-based
# conditions: human, HEK293 cells, read-out: HEK293 (CC50 code)
Each entry below carries its reported CC50 at 3 days.
quantity: CC50 at 3 days

- O=C(NS(=O)(=O)c1ccc(NCC2CCOCC2)c([N+](=O)[O-])c1)c1ccc(N2CCN(CC(O)(c3ccccc3)c3ccccc3)CC2)cc1Oc1cnc2[nH]ccc2c1: > 25 µM
- CC(C)C(=O)N1C[C@@H](CN2CCN(c3ccc(C(=O)NS(=O)(=O)c4ccc(NCC5CCOCC5)c([N+](=O)[O-])c4)c(Oc4cnc5[nH]ccc5c4)c3)CC2)[C@H](c2ccc(Cl)cc2)C1: > 25 µM
- O=C(NS(=O)(=O)c1ccc(NCC2CCOCC2)c([N+](=O)[O-])c1)c1ccc(N2CCN(CC(O)(c3ccccc3)c3ccc(F)c(F)c3)CC2)cc1Oc1cnc2[nH]ccc2c1 (stereo not shown): > 25 µM
- O=C(NS(=O)(=O)c1ccc(NCC2CCOCC2)c([N+](=O)[O-])c1)c1ccc(N2CCN(C(c3ccccc3)c3ccccc3)CC2)cc1Oc1ccc2[nH]ccc2c1: > 25 µM
- O=C(NS(=O)(=O)c1ccc(NCC2CCOCC2)c([N+](=O)[O-])c1)c1ccc(N2CCN(CC(c3ccccc3)c3ccc(F)c(F)c3)CC2)cc1Oc1cnc2[nH]ccc2c1 (stereo not shown): ≤ 10 µM
- O=C1CC[C@H](CN2CCN(c3ccc(C(=O)NS(=O)(=O)c4ccc(NCC5CCOCC5)c([N+](=O)[O-])c4)c(Oc4cnc5[nH]ccc5c4)c3)CC2)[C@@H](c2ccc(Cl)cc2)N1: 10 to 25 µM
- O=C(NS(=O)(=O)c1ccc(NCC2CCOCC2)c([N+](=O)[O-])c1)c1ccc(N2CCC(CN3CC4(CCCC4)C3c3ccccc3)CC2)cc1Oc1cnc2[nH]ccc2c1 (stereo not shown): > 25 µM
- CC1(O)CC[C@@H](CN2CCN(c3ccc(C(=O)NS(=O)(=O)c4ccc(NCC5CCOCC5)c([N+](=O)[O-])c4)c(Oc4cnc5[nH]ccc5c4)c3)CC2)[C@H](c2ccc(Cl)cc2)C1 (stereo partly shown): 10 to 25 µM
- O=C(NS(=O)(=O)c1ccc(NCC2CCOCC2)c([N+](=O)[O-])c1)c1ccc(N2CCN(C(c3ccccc3)c3ccccc3)CC2)cc1Oc1cnc2[nH]ccc2c1: > 25 µM
- O=C(NS(=O)(=O)c1ccc(NCC2CCOCC2)c([N+](=O)[O-])c1)c1ccc(N2CCC(CN3C(=O)C4(CCCC4)C3c3ccccc3)CC2)cc1Oc1cnc2[nH]ccc2c1 (stereo not shown): > 25 µM

Data origin: patent US11834450B2
